pIC50 reference
Target: MGLL (Mus musculus, UniProt O35678)
Sequence (O35678 1-303): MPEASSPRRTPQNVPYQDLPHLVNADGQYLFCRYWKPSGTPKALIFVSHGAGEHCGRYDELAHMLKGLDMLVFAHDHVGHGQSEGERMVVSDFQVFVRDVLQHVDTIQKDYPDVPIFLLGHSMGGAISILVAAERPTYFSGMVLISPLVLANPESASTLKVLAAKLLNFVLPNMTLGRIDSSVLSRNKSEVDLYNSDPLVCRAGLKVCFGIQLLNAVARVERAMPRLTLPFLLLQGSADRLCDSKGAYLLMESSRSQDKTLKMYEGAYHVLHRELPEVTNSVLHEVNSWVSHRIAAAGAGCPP
pIC50: −log10 of the molar value.

# count of solved cases: 3
- line.notation: "CS(=O)(=O)N1CCC2(CCN(c3cc(Cl)cc(CN4CCCC45CN(C(=O)OC(C(F)(F)F)C(F)(F)F)C5)c3)CC2)C1"
  readout.kind: "pIC50"
  recorded.result: "< 6.00"
- line.notation: "CN1CCC2(CCN(c3cc(Cl)ccc3CN3CCN(C(=O)OC(C(F)(F)F)C(F)(F)F)CC3)CC2)C1"
  readout.kind: "pIC50"
  recorded.result: "> 7.00"
- line.notation: "CS(=O)(=O)N1CCC2(CCN(c3cc(Cl)ccc3CN3CCN(C(=O)OC(C(F)(F)F)C(F)(F)F)CC3)C2)CC1"
  readout.kind: "pIC50"
  recorded.result: "> 7.00"

query: // output pIC50; input "O=C(OC(C(F)(F)F)C(F)(F)F)N1CCC2(CC1)CN(Cc1ccc(Cl)c(Cl)c1)C2" ; system MGLL (Mus musculus, UniProt O35678)
result: > 7.00

----------
The entries below are paired with their reported inhibition at 5 mg/kg.
target: MAGL (Mus musculus); construct: from tissue; host or cells: brain of wild-type C57Bl/6J mice; test: Mouse brain proteomes from inhibitor treated mice (oral gavage, brain proteomes analyzed 4 h after administration); assay type: in vivo, mouse (C57Bl/6J); conditions: brain proteome 4 h after administration, read-out: % Inh 5 mg/kg MGLL (Mouse)

Below are worked cases with known answers.
- compound: "O=C(OC(C(F)(F)F)C(F)(F)F)N1CCC2(CC1)CN(Cc1c(Cl)cccc1N1CC3COCC3C1)C2 (stereo not drawn)"
  readout.kind: "inhibition at 5 mg/kg"
  recorded.result: "≥ 75%"
- compound: "CN(Cc1cccc(Cl)c1C1(C(=O)O)CCCC1)C1(C)CCN(C(=O)OC(C(F)(F)F)C(F)(F)F)CC1"
  readout.kind: "inhibition at 5 mg/kg"
  recorded.result: "≤ 25%"
- compound: "CS(=O)(=O)N1CC2(CCN(c3cc(C(F)(F)F)ccc3CN3CCN(C(=O)OC(C(F)(F)F)C(F)(F)F)CC3)CC2)C1"
  readout.kind: "inhibition at 5 mg/kg"
  recorded.result: "≥ 75%"
- compound: "O=C(OC(C(F)(F)F)C(F)(F)F)N1CCC2(CC1)CN(Cc1c(N3CCC(F)CC3)cccc1C(F)(F)F)C2"
  readout.kind: "inhibition at 5 mg/kg"
  recorded.result: "≥ 75%"
- compound: "CC(=O)N1CCC2(CCN(c3ccccc3CN3CCN(C(=O)OC(C(F)(F)F)C(F)(F)F)CC3)C2)C1 (stereo not drawn)"
  readout.kind: "inhibition at 5 mg/kg"
  recorded.result: "≤ 25%"
- compound: "O=C(OC(C(F)(F)F)C(F)(F)F)N1CCC2(CC1)CN(Cc1c(N3CCN(C4CC4)CC3)cccc1C(F)(F)F)C2"
  readout.kind: "inhibition at 5 mg/kg"
  recorded.result: "≥ 75%"

query: Enter measured inhibition at 5 mg/kg, system MAGL (Mus musculus), for the compound shown: "O=C(OC(C(F)(F)F)C(F)(F)F)N1CCC2(CCCN2Cc2cc(Cl)cc(C3(C(=O)O)CCCC3)c2)CC1"
result: ≥ 75%

query: Report inhibition at 5 mg/kg on MAGL (Mus musculus) for this entry: CS(=O)(=O)N1CCC2(CCN(c3ccccc3CN3CCN(C(=O)OC(C(F)(F)F)C(F)(F)F)CC3)C2)C1 (stereo not drawn)
result: ≥ 75%

query: Recall the reported inhibition at 5 mg/kg of CC1(C(=O)O)CN(c2cc(C(F)(F)F)ccc2CN2CC3(CCN(C(=O)OC(C(F)(F)F)C(F)(F)F)CC3)C2)CCO1 (stereo not drawn) on MAGL (Mus musculus) and write it down.
result: ≤ 25%

----------
Target: MGLL (Mus musculus, UniProt O35678)
Sequence (O35678 1-303): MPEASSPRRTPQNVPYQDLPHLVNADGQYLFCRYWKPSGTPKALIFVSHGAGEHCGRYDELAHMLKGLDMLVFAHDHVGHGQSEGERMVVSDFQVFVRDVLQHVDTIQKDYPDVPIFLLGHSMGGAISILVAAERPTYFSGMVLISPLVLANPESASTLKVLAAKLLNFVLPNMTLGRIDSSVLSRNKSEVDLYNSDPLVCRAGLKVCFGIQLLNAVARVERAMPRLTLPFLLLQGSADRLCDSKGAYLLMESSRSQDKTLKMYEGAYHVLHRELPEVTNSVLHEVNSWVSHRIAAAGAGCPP
pIC50: −log10 of the molar value.
The compounds listed here are annotated with their pIC50.

- compound: "O=C(O)C1CN(c2cc(C(F)(F)F)ccc2CN2CC3(CCN(C(=O)OC(C(F)(F)F)C(F)(F)F)CC3)C2)CCO1 (stereo not shown) [Example 20]"
  recorded.result: "> 7.00"
- compound: "O=C(O)C1CCN(c2cc(C(F)(F)F)ccc2CN2CCC3(CC2)CCN(C(=O)OC(C(F)(F)F)C(F)(F)F)C3)CC1 [Example 195]"
  recorded.result: "6.00 to 7.00"
- compound: "CS(=O)(=O)N1CCCC12CCN(c1cc(C(F)(F)F)ccc1CN1CCN(C(=O)OC(C(F)(F)F)C(F)(F)F)CC1)CC2 [Example 209]"
  recorded.result: "> 7.00"
- compound: "O=C(OC(C(F)(F)F)C(F)(F)F)N1CCC2(CC1)CN(Cc1ccc(C(F)(F)F)cc1N1CCCCC1)C2 [Example 35]"
  recorded.result: "> 7.00"
- compound: "CN1CC2(CCN(c3cc(Cl)ccc3CN3CCN(C(=O)OC(C(F)(F)F)C(F)(F)F)CC3)C2)C1 [Example 169]"
  recorded.result: "6.00 to 7.00"

query: Answer with the recorded pIC50 of O=C(OC(C(F)(F)F)C(F)(F)F)N1CC2(CCN(Cc3c(N4CC5COCC5C4)cccc3C(F)(F)F)CC2)C1 (stereo not shown) [Example 33] only.
result: 6.00 to 7.00

query: Recall and state the measured pIC50 for CC(=O)N1CC2CN(c3cc(C(F)(F)F)ccc3CN3CCN(C(=O)OC(C(F)(F)F)C(F)(F)F)CC3)CC2C1 (stereo not shown) [Example 200] .
result: > 7.00

----------
Molecular target: MAGL (Homo sapiens, UniProt Q99685)
Construct: Proteomes (human prefrontal cortex or cell membrane fractions); from tissue
Sequence (Q99685 whole entry): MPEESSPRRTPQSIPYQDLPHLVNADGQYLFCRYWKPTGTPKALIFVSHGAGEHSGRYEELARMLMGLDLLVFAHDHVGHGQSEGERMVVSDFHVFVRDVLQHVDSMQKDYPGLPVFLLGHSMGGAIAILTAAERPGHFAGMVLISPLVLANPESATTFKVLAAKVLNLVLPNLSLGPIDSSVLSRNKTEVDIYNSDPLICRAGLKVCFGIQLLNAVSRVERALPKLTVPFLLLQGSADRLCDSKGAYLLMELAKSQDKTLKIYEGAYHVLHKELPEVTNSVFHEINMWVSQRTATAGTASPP
Experiment: In vitro competitive activity-based protein profiling (gel-based, FP-Rh or HT-01 probe)
Format: biochemical
Conditions: PFC (prefrontal cortex) proteome
Description: Compounds are tested to assess their MAGL and serine hydrolase activity using the following in vitro and in vivo assays. Proteomes (human prefrontal cortex or cell membrane fractions) (50 μL, 1.0 mg/mL total protein concentration) were preincubated with varying concentrations of inhibitors at 37° C. After 30 min, FP—Rh or HT-01 (1.0 μL, 50 μM in DMSO) was added and the mixture was incubated for another 30 min at room temperature. […]
readout.kind: % Inh MGLL PFC (Human, μM)

- molecule: "CN(Cc1ccc(C(F)(F)F)cc1CN1CCC(C(=O)O)CC1)C1(C)CCN(C(=O)OC(C(F)(F)F)C(F)(F)F)CC1"
  assay.system: "MAGL (Homo sapiens, UniProt Q99685)"
  readout.kind: "% Inh MGLL PFC (Human, μM)"
  recorded.result: "### (### is ≥ 75%)"
- molecule: "CN(Cc1ccc(C(F)(F)F)cc1N1CCN(CC(=O)O)CC1)C1(C)CCN(C(=O)OC(C(F)(F)F)C(F)(F)F)CC1"
  assay.system: "MAGL (Homo sapiens, UniProt Q99685)"
  readout.kind: "% Inh MGLL PFC (Human, μM)"
  recorded.result: "### (### is ≥ 75%)"
- molecule: "CC(C)(C#Cc1c(F)cccc1CN1CCCC12CCN(C(=O)OC(C(F)(F)F)C(F)(F)F)CC2)C(=O)O"
  assay.system: "MAGL (Homo sapiens, UniProt Q99685)"
  readout.kind: "% Inh MGLL PFC (Human, μM)"
  recorded.result: "### (### is ≥ 75%)"
- molecule: "CN(Cc1ccc(C(F)(F)F)cc1C1(C(=O)O)CCCC1)C1(C)CCN(C(=O)OC(C(F)(F)F)C(F)(F)F)CC1"
  assay.system: "MAGL (Homo sapiens, UniProt Q99685)"
  readout.kind: "% Inh MGLL PFC (Human, μM)"
  recorded.result: "### (### is ≥ 75%)"
- molecule: "CC(C)(C#Cc1ccccc1CN1CCCC12CCN(C(=O)OC(C(F)(F)F)C(F)(F)F)CC2)C(=O)O"
  assay.system: "MAGL (Homo sapiens, UniProt Q99685)"
  readout.kind: "% Inh MGLL PFC (Human, μM)"
  recorded.result: "### (### is ≥ 75%)"
- molecule: "CC(C)(C#Cc1c(Cl)cccc1CN1CCCC12CCN(C(=O)OC(C(F)(F)F)C(F)(F)F)CC2)C(=O)O"
  assay.system: "MAGL (Homo sapiens, UniProt Q99685)"
  readout.kind: "% Inh MGLL PFC (Human, μM)"
  recorded.result: "### (### is ≥ 75%)"

Lab note: next molecule to report on.
query: Please supply the value of reported % Inh MGLL PFC (Human, μM) for the item O=C(O)CN1CC2CC1CN2c1cc(C(F)(F)F)ccc1CN1CCCC12CCN(C(=O)OC(C(F)(F)F)C(F)(F)F)CC2 (stereo not shown)
result: ### (### is ≥ 75%)

Origin of measurements: patent US20210214375A1
